Exercise: for every item that follows, state its recorded SH2 binding enrichment.
- experimental.system: SHP2-C SH2;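 also: peptide library displayed on the E. coli surface as eCPX fusions, selected cells deep-sequenced, score is each peptide's frequency after selection divided by its frequency in the input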
- protocol.notes: SH2 binding enrichment of the phosphorylated peptide, bacterial display (enrichment ratio); higher = better substrate or ligand; peptides without Tyr show the background
// return just the number, without any unit appended

What value of SH2 binding enrichment has been recorded for this entry: VPFAQYLAMNK [HARS1_Y138_R137Q] 0.798

Fill in: SH2 binding enrichment of GVSFIYTIDGS [DCX_Y105_R102S_YF] is ___ 0.725

So what's the measured SH2 binding enrichment for this one? VSLEAYCKHKF [RXRA_Y403_A398V_YF] 0.674

Looking for the measured SH2 binding enrichment of LAGRFYALRSM [CKB_Y174_K177R_YF] , can you help? 0.874

May I ask what SH2 binding enrichment has been recorded for NKEAICSGYIR [SMCHD1_Y283_Y283C] ? 0.462

Using the record for RRIHSNRGHLW [VHL_Y112_Y112N] , report its SH2 binding enrichment. 0.568

So what's the measured SH2 binding enrichment for this one? YSKTQYNQVPS [CXADR_Y318] 0.714

For RGRSTCFWPRP [GAGE12J_Y9_Y9C_YF] , what is its reported SH2 binding enrichment? 0.353

If you can, please state the reported SH2 binding enrichment value of IDSTPYRQWYE [RPS8_Y109] . 0.814

I have this sequence here, LRAGVYREKDQ [DNM2_Y626_P627R] , and I need its recorded SH2 binding enrichment. 0.478

Give the measured SH2 binding enrichment of MFKPMYALFRT [HUWE1_Y4078_N4075K] . 1.86

Which measured SH2 binding enrichment value corresponds to YSTSPYLLEAA [BRIP1_Y921] ? 1.15

What value of SH2 binding enrichment has been reported for the following sequence? YMLYQYLKQIE [RPAP3_Y569_D564Y] 2.83

Which SH2 binding enrichment reading was recorded for the sequence IAINKYGVSLI [MYO7A_Y2136] ? 0.703

###

- experimental.system: MERTK (UniProt Q12866)
- Sequence (Q12866 whole entry, looked up): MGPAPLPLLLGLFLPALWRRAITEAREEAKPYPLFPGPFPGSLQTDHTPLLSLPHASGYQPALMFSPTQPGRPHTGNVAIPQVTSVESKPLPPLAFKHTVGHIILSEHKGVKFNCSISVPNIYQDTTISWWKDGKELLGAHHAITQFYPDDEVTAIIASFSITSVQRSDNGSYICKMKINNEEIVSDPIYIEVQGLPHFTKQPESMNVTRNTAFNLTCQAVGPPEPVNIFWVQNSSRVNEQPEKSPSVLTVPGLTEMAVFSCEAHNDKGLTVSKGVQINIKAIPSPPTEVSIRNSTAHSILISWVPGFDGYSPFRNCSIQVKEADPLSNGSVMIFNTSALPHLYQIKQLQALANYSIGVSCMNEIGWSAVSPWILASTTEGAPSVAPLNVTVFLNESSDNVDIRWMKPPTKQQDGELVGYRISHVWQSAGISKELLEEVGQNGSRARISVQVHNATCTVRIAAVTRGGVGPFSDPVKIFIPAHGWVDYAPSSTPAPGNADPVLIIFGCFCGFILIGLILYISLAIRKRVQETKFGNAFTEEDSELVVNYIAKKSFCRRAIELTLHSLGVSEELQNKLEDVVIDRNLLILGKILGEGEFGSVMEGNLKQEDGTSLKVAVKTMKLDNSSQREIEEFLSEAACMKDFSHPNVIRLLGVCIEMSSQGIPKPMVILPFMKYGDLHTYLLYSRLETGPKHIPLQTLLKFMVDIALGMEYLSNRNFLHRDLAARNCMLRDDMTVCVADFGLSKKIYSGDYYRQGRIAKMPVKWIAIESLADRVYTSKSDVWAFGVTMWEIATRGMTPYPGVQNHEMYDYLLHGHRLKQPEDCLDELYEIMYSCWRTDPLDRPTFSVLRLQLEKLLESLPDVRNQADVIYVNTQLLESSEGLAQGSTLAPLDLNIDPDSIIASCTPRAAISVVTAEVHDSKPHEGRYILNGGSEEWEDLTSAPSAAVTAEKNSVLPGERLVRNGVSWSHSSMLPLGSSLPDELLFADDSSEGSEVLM
- protocol.notes: phosphorylation enrichment, bacterial display (enrichment ratio); higher = better substrate or ligand; peptides without Tyr show the background
Exercise: state measured phosphorylation enrichment for each of the sequences provided.
Lab note: write the figure by itself, no unit.

What reported phosphorylation enrichment corresponds to IFQASYFRRGD [LTK_Y676_R673Q_YF] on MERTK (UniProt Q12866)? 0.628

Missing value: phosphorylation enrichment, MERTK (UniProt Q12866), entry LVRAFYCERRR [CARD11_Y970] . Fill in? 0.902

Could you share what phosphorylation enrichment was measured for AVRVFYRKCPR [EPHB2_Y194] , tested on MERTK (UniProt Q12866)? 0.517

Provide the documented phosphorylation enrichment with MERTK (UniProt Q12866) as the system for DLAAQYTTVGR [SGSH_Y240] 0.494

Notebook: pull reported phosphorylation enrichment for MERTK (UniProt Q12866), entry MNKNAYHNVTA [ST3GAL6_Y306] 0.404

Short answer please: phosphorylation enrichment, MERTK (UniProt Q12866), entry ASLEAYCKHKY [RXRA_Y403] 0.392

Enter reported phosphorylation enrichment observed with MERTK (UniProt Q12866) for LPEENYQVLCF [ARHGAP1_Y365_R369C] 3.58

MERTK (UniProt Q12866) / phosphorylation enrichment / QQLVAYYSKHT [SRC_Y232_A237T] : value? 0.629

Observed phosphorylation enrichment on MERTK (UniProt Q12866) for RASSVFTRSTG [CCR5_Y339_Y339F] , please. 0.624

Please state recorded phosphorylation enrichment (tested on MERTK (UniProt Q12866)) of MTRDIYRASFF [ALK_Y1278_A1274T_YF] 0.464

Recall the recorded phosphorylation enrichment for ISDDNYGRIRL [ARCN1_Y310_K309N] with MERTK (UniProt Q12866) and state it. 0.344

// map CTLLPYFSARV [DGKE_Y269_YF] to recorded phosphorylation enrichment (system: MERTK (UniProt Q12866)) 0.424

Provide value of phosphorylation enrichment for this record tested with MERTK (UniProt Q12866): QKLPLYILENN [VPS13B_Y2774_S2773L] 0.758

Recorded phosphorylation enrichment for DALDNYVIRGV [PCCA_Y473] with MERTK (UniProt Q12866), please? 0.408
